Target or system: T1, LNX2_2, Q8N448
T1 sequence (Q8N448 334-432, limits assumed, looked up): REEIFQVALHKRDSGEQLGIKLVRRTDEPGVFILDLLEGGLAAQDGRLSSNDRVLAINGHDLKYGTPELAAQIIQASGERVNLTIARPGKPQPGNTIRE
Assay text: holdup assay
Set-up: key: below the threshold = too weak to quantify, mostly under pKd 3.1 to 4
Condition: plain residues with an end cap or a label only (N-terminal biotin on a linker: ado-ado)
Endpoint: pKd

Query :: What value of pKd has been reported for the following binder? THHRKIHTRV [ZNF599, Q96NL3]
Result :: 3.82

Query :: Quick one: GVHSNDHSVV [LPAR1, Q92633]
Result :: 4.26

Query :: Quick one: NNMAFETTHF [SLC5A12, Q1EHB4]
Result :: below the threshold

Query :: Quick one: FLVTEFNVML [DFNB31, Q9P202]
Result :: below the threshold

Query :: Quick one: THREVKFTSL [CD46, P15529]
Result :: below the threshold

Others:
Query :: What value of pKd has been reported for the following binder? RSPVATATSC [DUSP5, Q16690]
Result :: 3.75

Query :: Quick one: KAEEKPPSKV [SCN4B, Q8IWT1]
Result :: below the threshold

Query :: Quick one: PDSYHRRDFW [U2AF2, P26368]
Result :: below the threshold
